These entries and their values trace back to patent US20240197666A1.

Kindly state Relative wound healing to control (%) for each of the entries shown.
- Tested on: Hela cells
- Protocol Description: In vitro scratch wound healing assay
- Assay type: cell-based
- Condition Description: 24h, 30 nM
For clarity, give the value followed by its unit.

Lookup result for CC1=C[C@H]2[C@@]3(O)[C@H](C)C[C@]4(OC(=O)[C@@H](N)CCCCCCc5ccccc5)[C@H]([C@@H]3C=C(CO)C[C@]2(O)C1=O)C4(C)C ; measured Relative wound healing to control (%): 267%

The compound listed as CC1=C[C@H]2[C@@]3(O)[C@H](C)C[C@]4(OC(=O)[C@H](N)CCCCCCc5ccccc5)[C@H]([C@@H]3C=C(CO)C[C@]2(O)C1=O)C4(C)C has a reported Relative wound healing to control (%) of 239%

Record CC1=C[C@H]2[C@@]3(O)[C@H](C)C[C@]4(OC(=O)[C@@H](N)[C@]56C[C@H]7C[C@H](C[C@H](C7)C5)C6)[C@H]([C@@H]3C=C(CO)C[C@]2(O)C1=O)C4(C)C , field Relative wound healing to control (%): 272%

Looking up CC1=C[C@H]2[C@@]3(O)[C@H](C)C[C@]4(OC(=O)[C@@H](N)C5Cc6ccccc6C5)[C@H]([C@@H]3C=C(CO)C[C@]2(O)C1=O)C4(C)C , I found its Relative wound healing to control (%) recorded as 210%

Measured Relative wound healing to control (%), CC1=C[C@H]2[C@@]3(O)[C@H](C)C[C@]4(OC(=O)[C@@H](N)CC5CCCCC5)[C@H]([C@@H]3C=C(CO)C[C@]2(O)C1=O)C4(C)C : 123%

* * *

Please respond with reported IC50 for every item in the list.
- Test system: A549 cell line
- Protocol Description: Proliferation of A549 (CellTiter Glo)
- Format: cell-based
- Condition Description: Homo sapiens, A549, 96 h, read-out: IC50 μM (A549 Cell Line)

Looking up CC1=C[C@H]2[C@@]3(O)[C@H](C)C[C@]4(OC(=O)C(C)(C)C)[C@H]([C@@H]3C=C(CO)C[C@]2(O)C1=O)C4(C)C , I found its IC50 recorded as 0.06 to 0.1 µM

Recorded IC50 (compound CC1=C[C@H]2[C@@]3(O)[C@H](C)C[C@]4(OC(=O)[C@@H](N)CC5CCCCC5)[C@H]([C@@H]3C=C(CO)C[C@]2(O)C1=O)C4(C)C ): 0.06 to 0.1 µM

IC50 reported for this compound CC1=C[C@H]2[C@@]3(O)[C@H](C)C[C@]4(OC(=O)[C@H](N)Cc5ccccc5)[C@H]([C@@H]3C=C(CO)C[C@]2(O)C1=O)C4(C)C : 1 to 2 µM

* * *

Kindly supply the reported pKi values for the records listed here.
- Assay Target: C1b domain of human PKD1 (PKCμ) (Homo sapiens, UniProt Q15139)
- Sequence (Q15139 270-320 limits assumed): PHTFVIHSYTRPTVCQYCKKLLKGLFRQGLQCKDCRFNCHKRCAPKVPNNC
pKi: −log10 of the molar value.

CC1=C[C@H]2[C@@]3(O)[C@H](C)C[C@]4(OC(=O)[C@H](N)CCCCCCc5ccc(C(F)F)cc5)[C@H]([C@@H]3C=C(CO)C[C@]2(O)C1=O)C4(C)C has a reported pKi of 7.52 to 8.00

Record CC1=C[C@H]2[C@@]3(O)[C@H](C)C[C@]4(OC(=O)[C@H](N)CCCCCCc5ccc(C(F)(F)F)cc5)[C@H]([C@@H]3C=C(CO)C[C@]2(O)C1=O)C4(C)C , field pKi: 7.52 to 8.00

Value of measured pKi for the entry CCCCCCCCCCCCCC(=O)O[C@@H]1[C@@H](C)[C@@]2(O)[C@@H](C=C(CO)C[C@]3(O)C(=O)C(C)=C[C@@H]23)[C@@H]2C(C)(C)[C@]12OC(C)=O [Compound K103, 12-O-Tetradecanoylphorbol-13-acetate, reference compound] : > 8.30

* * *

I'd be grateful if you could share measured pKi for these entries.
pKi: −log10 of the molar value.

The recorded pKi with C1b domain of human PKCθ (Homo sapiens) for CC1=C[C@H]2[C@@]3(O)[C@H](C)C[C@]4(OC(=O)C5CC6(C5)CN(C(=O)OC(C)(C)C)C6)[C@H]([C@@H]3C=C(CO)C[C@]2(O)C1=O)C4(C)C was 7.52 to 8.00

Reading of pKi for CC1=C[C@H]2[C@@]3(O)[C@H](C)C[C@]4(OC(=O)[C@@H](N)CCCCCCc5ccc(C(F)F)cc5)[C@H]([C@@H]3C=C(CO)C[C@]2(O)C1=O)C4(C)C with C1b domain of human PKCθ (Homo sapiens): 7.52 to 8.00

pKi of CC1=C[C@H]2[C@@]3(O)[C@H](C)C[C@]4(OC(=O)[C@H](N)C(C)(C)c5ccc(C(F)(F)F)cc5)[C@H]([C@@H]3C=C(CO)C[C@]2(O)C1=O)C4(C)C , assay on C1b domain of human PKCθ (Homo sapiens), is 7.52 to 8.00

The value of pKi recorded for CC1=C[C@H]2[C@@]3(O)[C@H](C)C[C@]4(OC(=O)[C@@H](N)CCC5CCCCC5)[C@H]([C@@H]3C=C(CO)C[C@]2(O)C1=O)C4(C)C when tested on C1b domain of human PKCθ (Homo sapiens) reads 7.52 to 8.00

Per the reported C1b domain of human PKCθ (Homo sapiens) data, CC1=C[C@H]2[C@@]3(O)[C@H](C)C[C@]4(OC(=O)CC5CC6(C5)CN(C(=O)OC(C)(C)C)C6)[C@H]([C@@H]3C=C(CO)C[C@]2(O)C1=O)C4(C)C has pKi of 7.52 to 8.00

Form: item CC1=C[C@H]2[C@@]3(O)[C@H](C)C[C@]4(OC(=O)[C@@H](N)CCc5ccccc5)[C@H]([C@@H]3C=C(CO)C[C@]2(O)C1=O)C4(C)C ; test system C1b domain of human PKCθ (Homo sapiens); pKi: 7.52 to 8.00

* * *

Would you kindly list IC50 for each of these compounds?
- Tested on: A549 cell line
- Protocol Description: Proliferation of A549 (CellTiter Glo)
- Assay type: cell-based
- Condition Description: Homo sapiens, A549, 96 h, read-out: IC50 μM (A549 Cell Line)

Recorded IC50 (compound CC1=C[C@H]2[C@@]3(O)[C@H](C)C[C@]4(OC(=O)[C@H](N)CCCCCCc5ccc(C(F)F)cc5)[C@H]([C@@H]3C=C(CO)C[C@]2(O)C1=O)C4(C)C ): 0.1 to 0.2 µM

Lab note: CC1=C[C@H]2[C@@]3(O)[C@H](C)C[C@]4(OC(=O)C[C@@H](N)c5ccccc5)[C@H]([C@@H]3C=C(CO)C[C@]2(O)C1=O)C4(C)C gave IC50 of 2 to 5 µM

Given item CC1=C[C@H]2[C@@]3(O)[C@H](C)C[C@]4(OC(=O)CCc5ccncc5)[C@H]([C@@H]3C=C(CO)C[C@]2(O)C1=O)C4(C)C , the value recorded as its IC50 is 1 to 2 µM

* * *

- System: Namalwa (Lymphoma)
- Protocol Description: Proliferation of Namalwa
- Format: cell-based
What ratio (IC50 of K101)/(IC50 of compound) Namalwa was measured for each of the following?
I'd appreciate a reply containing only the number, no unit.

// ratio (IC50 of K101)/(IC50 of compound) Namalwa (Namalwa (Lymphoma)) for CC1=C[C@H]2[C@@]3(O)[C@H](C)C[C@]4(OC(=O)CCC5CCCC5)[C@H]([C@@H]3C=C(CO)C[C@]2(O)C1=O)C4(C)C = 1.73

Lab entry: Namalwa (Lymphoma) assay, compound CC1=C[C@H]2[C@@]3(O)[C@H](C)C[C@]4(OC(=O)[C@@H](N)CCC5CCCCC5)[C@H]([C@@H]3C=C(CO)C[C@]2(O)C1=O)C4(C)C , ratio (IC50 of K101)/(IC50 of compound) Namalwa = 7.42

ratio (IC50 of K101)/(IC50 of compound) Namalwa on Namalwa (Lymphoma) for CC1=C[C@H]2[C@@]3(O)[C@H](C)C[C@]4(OC(=O)[C@@H](N)CCCCCCc5ccccc5)[C@H]([C@@H]3C=C(CO)C[C@]2(O)C1=O)C4(C)C is 16.1

Noted ratio (IC50 of K101)/(IC50 of compound) Namalwa for CC1=C[C@H]2[C@@]3(O)[C@H](C)C[C@]4(OC(=O)[C@@H](N)[C@]56C[C@H]7C[C@H](C[C@H](C7)C5)C6)[C@H]([C@@H]3C=C(CO)C[C@]2(O)C1=O)C4(C)C , tested on Namalwa (Lymphoma): 18.2

The value of ratio (IC50 of K101)/(IC50 of compound) Namalwa recorded for CC1=C[C@H]2[C@@]3(O)[C@H](C)C[C@]4(OC(=O)[C@@H](N)Cc5ccc(C(F)(F)F)cc5)[C@H]([C@@H]3C=C(CO)C[C@]2(O)C1=O)C4(C)C when tested on Namalwa (Lymphoma) reads 1.68

Short answer on Namalwa (Lymphoma) for CC1=C[C@H]2[C@@]3(O)[C@H](C)C[C@]4(OC(=O)[C@@H](N)C5Cc6ccccc6C5)[C@H]([C@@H]3C=C(CO)C[C@]2(O)C1=O)C4(C)C , ratio (IC50 of K101)/(IC50 of compound) Namalwa: 1.6

Form field, ratio (IC50 of K101)/(IC50 of compound) Namalwa with Namalwa (Lymphoma), item CC1=C[C@H]2[C@@]3(O)[C@H](C)C[C@]4(OC(=O)[C@@H](N)CC5CCCCC5)[C@H]([C@@H]3C=C(CO)C[C@]2(O)C1=O)C4(C)C : 2.03

I looked up CC1=C[C@H]2[C@@]3(O)[C@H](C)C[C@]4(OC(=O)[C@H](N)CCCCCCc5ccccc5)[C@H]([C@@H]3C=C(CO)C[C@]2(O)C1=O)C4(C)C and its ratio (IC50 of K101)/(IC50 of compound) Namalwa for Namalwa (Lymphoma) was 4.93

Bench note, Namalwa (Lymphoma): entry CC1=C[C@H]2[C@@]3(O)[C@H](C)C[C@]4(OC(=O)[C@H](N)C(C)(C)c5ccc(C(F)(F)F)cc5)[C@H]([C@@H]3C=C(CO)C[C@]2(O)C1=O)C4(C)C , its ratio (IC50 of K101)/(IC50 of compound) Namalwa = 0.49

With Namalwa (Lymphoma) as the test system, CC1=C[C@H]2[C@@]3(O)[C@H](C)C[C@]4(OC(=O)[C@@H](N)CCc5ccccc5)[C@H]([C@@H]3C=C(CO)C[C@]2(O)C1=O)C4(C)C showed ratio (IC50 of K101)/(IC50 of compound) Namalwa of 0.93

Namalwa (Lymphoma) data for CC1=C[C@H]2[C@@]3(O)[C@H](C)C[C@]4(OC(=O)CCc5ccc(C(F)(F)F)cc5)[C@H]([C@@H]3C=C(CO)C[C@]2(O)C1=O)C4(C)C ; its ratio (IC50 of K101)/(IC50 of compound) Namalwa: 13.8

GET /values?item= CC1=C[C@H]2[C@@]3(O)[C@H](C)C[C@]4(OC(=O)CCCc5ccccc5)[C@H]([C@@H]3C=C(CO)C[C@]2(O)C1=O)C4(C)C &system= Namalwa (Lymphoma) returns ratio (IC50 of K101)/(IC50 of compound) Namalwa: 8.63

Here CC1=C[C@H]2[C@@]3(O)[C@H](C)C[C@]4(OC(=O)C(C)(C)C)[C@H]([C@@H]3C=C(CO)C[C@]2(O)C1=O)C4(C)C was tested on Namalwa (Lymphoma), and its ratio (IC50 of K101)/(IC50 of compound) Namalwa came to 1.38
